Test system: RXF 393 renal
experiment-summary: NCI tumour cell line growth inhibition, 48 h
This listing pairs compounds with measured TGI.

{"chemical-structure": "Cc1ccc(F)c2c(=O)cc(-c3ccccc3)[nH]c12", "comparison-operator": ">", "TGI (µM)": 100}
{"chemical-structure": "O=c1oc2c(ccc3c(O)cccc32)c2c1CCCC2", "comparison-operator": "=", "TGI (µM)": 39.8}
{"chemical-structure": "Cn1c2ccccc2c2[nH]c3ccccc3c(=O)c21", "comparison-operator": ">", "TGI (µM)": 100}
{"chemical-structure": "O=C1NC(SCc2ccc(F)cc2)=N/C1=C/c1cccc(OCc2ccc(Cl)cc2)c1", "comparison-operator": "=", "TGI (µM)": 48.9}
{"chemical-structure": "CNC(=O)c1cncc(/C=C/c2c(Cl)cccc2Cl)c1", "comparison-operator": ">", "TGI (µM)": 25}
{"chemical-structure": "CCc1c2c(nc3ccc(OCc4ccc(B5OC(C)(C)C(C)(C)O5)cc4)cc13)-c1cc3c(c(=O)n1C2)COC(=O)[C@]3(O)CC", "comparison-operator": "=", "TGI (µM)": 0.185}
{"chemical-structure": "Cc1ccccc1NC(=O)c1cc2ccccc2cc1O", "comparison-operator": "=", "TGI (µM)": 7.23}
{"chemical-structure": "CC(=O)/C(=C(/Br)I)c1ccccc1", "comparison-operator": "=", "TGI (µM)": 13.3}
{"chemical-structure": "NC(=S)N/N=C/c1ccc(OC(=O)COc2ccccc2Cl)cn1", "comparison-operator": ">", "TGI (µM)": 100}
{"chemical-structure": "O=C(CC(=O)c1ccccc1)C(=O)NC12CC3CC(CC(C3)C1)C2", "comparison-operator": ">", "TGI (µM)": 47.3}

====

Test system: MCF7 breast
experiment-summary: NCI tumour cell line growth inhibition, 48 h
result-type: TGI

{"compound": "O=C1/C(=C/c2ccc(Cl)cc2)Sc2scc(-c3cccc([N+](=O)[O-])c3)[n+]21", "assayed-target": "MCF7 breast", "endpoint-value": "> 40.7 µM"}
{"compound": "CNC(=O)c1cncc(/C=C/c2c(Cl)cccc2Cl)c1", "assayed-target": "MCF7 breast", "endpoint-value": "> 25 µM"}
{"compound": "COc1ccc(OC)c(/C=N/N=C2\\C(=O)Nc3c(Cl)cc(Cl)cc32)c1", "assayed-target": "MCF7 breast", "endpoint-value": "> 100 µM"}
{"compound": "Cc1ccc(-c2c3c(N)c4c(nc3nc3c2c(C)nn3-c2ccccc2)CCC4)cc1", "assayed-target": "MCF7 breast", "endpoint-value": "4.34 µM"}
{"compound": "CC(C)(C)N=c1n(C(C)(C)C)oc(=O)n1-c1ccccc1", "assayed-target": "MCF7 breast", "endpoint-value": "> 50 µM"}
{"compound": "Cc1ccc(S(=O)(=O)Nc2cc(Sc3ccccc3)c(O)c3ccccc23)cc1", "assayed-target": "MCF7 breast", "endpoint-value": "4.79 µM"}
{"compound": "Cc1nc(Nc2nc3ccccc3[nH]2)[nH]c(=O)c1CCO", "assayed-target": "MCF7 breast", "endpoint-value": "> 100 µM"}
{"compound": "Oc1ccc(Cn2c(-c3ccc(O)cc3)nc3ccccc32)cc1", "assayed-target": "MCF7 breast", "endpoint-value": "> 100 µM"}
{"compound": "C=CCC1C2CCC(O[Si](C(C)C)(C(C)C)C(C)C)(C(C(=O)OC)C2)C1O (stereo not drawn)", "assayed-target": "MCF7 breast", "endpoint-value": "> 100 µM"}
{"compound": "CCOC(=O)c1c(NC(=O)c2ccc(Br)cc2)sc2c1CCCC2", "assayed-target": "MCF7 breast", "endpoint-value": "> 100 µM"}
{"compound": "COC(=O)C1=NN2c3ccccc3CN([C@@H](C)c3ccccc3)C(=O)[C@H]2[C@@H]1C", "assayed-target": "MCF7 breast", "endpoint-value": "> 100 µM"}
{"compound": "NS(=O)(=O)c1ccc(N2N=C(c3cccs3)CC2c2ccccc2O)cc1 (stereo not drawn)", "assayed-target": "MCF7 breast", "endpoint-value": "4.45 µM"}
{"compound": "Cc1cc(-c2ccc(C(=O)C(c3ccccc3)(c3ccccc3)c3ccccc3)[nH]2)on1", "assayed-target": "MCF7 breast", "endpoint-value": "> 100 µM"}
{"compound": "Cc1cn(Cc2ccccc2CCl)c(=O)n(Cc2ccccc2CCl)c1=O", "assayed-target": "MCF7 breast", "endpoint-value": "4.77 µM"}
{"compound": "COc1cccc(C(=O)N[C@@H]2[C@H](O)[C@@H](CO)O[C@H]2n2cnc3c(N)ncnc32)c1", "assayed-target": "MCF7 breast", "endpoint-value": "> 100 µM"}
{"compound": "COC(=O)CNCC1OC2OC(C)(C)OC2C1N=[N+]=[N-] (stereo not drawn)", "assayed-target": "MCF7 breast", "endpoint-value": "> 100 µM"}
{"compound": "Oc1ccccc1-n1nc2ccc3nonc3c2n1", "assayed-target": "MCF7 breast", "endpoint-value": "> 100 µM"}
{"compound": "c1ccc2c(CN3CCC(C4CCN(Cc5cccc6ccccc56)CC4)CC3)cccc2c1", "assayed-target": "MCF7 breast", "endpoint-value": "> 73.7 µM"}

====

System: MDA-N
experiment-summary: NCI tumour cell line growth inhibition, 48 h
*1 amine or outer side, *2 acyl side, *3 side chain or, on linkers, in order; H or OH if unused. Where a SMILES comes first, the peptide text is derived from it. [ ]: non-standard residue; d: D form. The star is where a group is joined. X31 = CC(=O)N(C)SCC(N[*:1])C(=O)[*:2]; Fmoc = O=C(OCC1c2ccccc2-c2ccccc21)*; For = O=C*
result-type: TGI

{"compound": "COC(=O)CCC(C)[C@H]1CCC2C3C(C[C@H](OC(C)=O)[C@@]21C)[C@@]1(C)CCC2(C[C@H]1C[C@H]3OC(C)=O)OOC1(CCCCC1)OO2 (stereo partly drawn)", "assayed-target": "MDA-N", "endpoint-value": "> 100 µM"}
{"compound": "CC(=O)N(C)SCC(NC(=O)C(Cc1ccccc1)NC(=O)OCC1c2ccccc2-c2ccccc21)C(=O)NC(Cc1ccccc1)C(=O)NC(Cc1cn(C=O)c2ccccc12)C(=O)NC(CCCCNC(=O)OCC1c2ccccc2-c2ccccc21)C(=O)NC(C(=O)NC(CSN(C)C(C)=O)C(=O)NC(C(N)=O)C(C)O)C(C)O (stereo not drawn) (Fmoc-F[X31]FW(For)K(Fmoc)T[X31]T-NH2; configuration not given here)", "assayed-target": "MDA-N", "endpoint-value": "> 100 µM"}
{"compound": "COc1cc2nncc(SCc3ccc(Cl)c(Cl)c3)c2cc1OC", "assayed-target": "MDA-N", "endpoint-value": "> 100 µM"}
{"compound": "CC(C)OP(=O)(OC(C)C)C(Nc1cccc(C(F)(F)F)c1)c1ccccc1 (stereo not drawn)", "assayed-target": "MDA-N", "endpoint-value": "> 100 µM"}
{"compound": "C=CCC1C2CCC(O[Si](C(C)C)(C(C)C)C(C)C)(C(C(=O)OC)C2)C1O (stereo not drawn)", "assayed-target": "MDA-N", "endpoint-value": "> 100 µM"}
{"compound": "CCN1C(=O)CS/C1=N\\NC(=O)CSc1nc2ccccc2c(=O)n1CC", "assayed-target": "MDA-N", "endpoint-value": "> 100 µM"}
{"compound": "COc1ccc(OC)c(/C=N/N=C2\\C(=O)Nc3c(Cl)cc(Cl)cc32)c1", "assayed-target": "MDA-N", "endpoint-value": "40.9 µM"}
{"compound": "CCOP(=O)(OCC)C(=C1C=C(C(C)(C)C)C(=O)C(C(C)(C)C)=C1)P(=O)(OCC)OCC", "assayed-target": "MDA-N", "endpoint-value": "> 9.4 µM"}
{"compound": "C=CC[C@H]1[C@H](O[Si](C)(C)C(C)(C)C)C=CC(=O)[C@@H]1CC(=O)OCC", "assayed-target": "MDA-N", "endpoint-value": "29.1 µM"}
{"compound": "C=C(C)C(=O)O[C@H]1CC2=CC(CC(C)=C[C@H]3OC(=O)C(=C)C13)OC2=O (stereo partly drawn)", "assayed-target": "MDA-N", "endpoint-value": "89.4 µM"}
{"compound": "COc1cccc(C(=O)N[C@@H]2[C@H](O)[C@@H](CO)O[C@H]2n2cnc3c(N)ncnc32)c1", "assayed-target": "MDA-N", "endpoint-value": "> 100 µM"}
{"compound": "NCCCCCNOCCCN", "assayed-target": "MDA-N", "endpoint-value": "> 100 µM"}
{"compound": "CC(=O)NC(CO)C(=O)NC(Cc1ccc(O)cc1)C(=O)NCC(N)=O (stereo not drawn) (Ac-Ser-Tyr-Gly-NH2; configuration not given here)", "assayed-target": "MDA-N", "endpoint-value": "> 100 µM"}
{"compound": "CNc1ncnc2c1cnn2Cc1cn(CCCCO)nn1", "assayed-target": "MDA-N", "endpoint-value": "> 100 µM"}
{"compound": "O=C(Nc1ccc(S(=O)(=O)Nc2ncccn2)cc1)c1c2ccccc2nc2ccccc12", "assayed-target": "MDA-N", "endpoint-value": "> 100 µM"}
{"compound": "O=C1NC(c2ccccc2)N=C2Oc3ccccc3C=C12 (stereo not drawn)", "assayed-target": "MDA-N", "endpoint-value": "1.12 µM"}
{"compound": "COC(=O)C1(C)OC(C)=NC1(C(=O)OC)C(=O)OC (stereo not drawn)", "assayed-target": "MDA-N", "endpoint-value": "> 100 µM"}
{"compound": "CCSC12CC3c4cccc5c4C(CN5C(=O)c4ccccc4)CC3(O1)N(C)C2=O (stereo not drawn)", "assayed-target": "MDA-N", "endpoint-value": "81.6 µM"}

The origin of these recorded values is PubChem BioAssay (NCI).
